The reported numbers originate from PubChem BioAssay.

# Assay Notes: growth suppression of yeast trafficking mutant, preliminary HTS, modulators of trafficking downstream of Golgi apparatus project, 1536-format plate, OD 615 nm (AID 637)
# Condition Label: yeast transport mutant growth, absorbance 615 nm, 18 h; active compounds read high
Measurement Name: inhibition (%)
Form entry: value (%) — number only.

Observe how each entry below is paired with its result.
Input line: What does the record list as inhibition for COC(=O)CSc1ncccc1-c1nc2ccccc2[nH]1 ?
Output line: -5.48

Input line: Moving on to COCC(=O)Nc1cc(OC)ccc1OC
Output line: 0.66

Input line: Moving on to Clc1ccccc1-c1nnc2sc(-c3ccccn3)nn12
Output line: 4.6

Input line: Moving on to c1ccc(CSc2nnc(-c3cccs3)n2Cc2ccco2)cc1
Output line: -0.65

Input line: Moving on to O=C(O)CCc1ccc(-c2cccs2)n1NC(=O)c1ccco1
Output line: 9.05

Input line: Moving on to Cc1nnc(SCCCn2c(N3CCCCC3)nc3c2c(=O)[nH]c(=O)n3C)s1
Output line: 4

Input line: Moving on to COc1cccc(/C(O)=C2/C(=O)C(=O)N(CCN3CCOCC3)C2c2cccnc2)c1 (centres undefined)
Output line: -3.02

Input line: Moving on to Cc1cc(C)n(C(C)n2nc(C)cc2C)n1
Output line: -0.91

***
Input line: What does the record list as inhibition for Nc1ccc(S(=O)(=O)Nc2ccccn2)cc1 ?
Output line: -1.17

Input line: Moving on to CCOC(=O)NC(=O)CSc1nnnn1-c1ccc(Cl)cc1
Output line: 0.48

---

# key: entry, value: differential viability (reversal)
# Assay Notes: reversal of MRP1-mediated doxorubicin resistance, pilot screen, H69AR cells, doxorubicin co-treatment (AID 601)
# Condition Label: H69AR cells + 2 uM doxorubicin, CellTiter-Glo, 72 h; at 10 µM; active compounds read high
Form entry: value (%) — number only.

Observe how each entry below is paired with its result.
Input line: What does the record list as differential viability (reversal) for CC1CCN(CCCNC(=O)c2coc3nc4ccccc4nc23)CC1 ?
Output line: -6.4

Input line: Moving on to COc1ccc(-n2cc(-c3ccccc3)c3c(N4CCN(CCO)CC4)ncnc32)cc1
Output line: 10.5

Input line: Moving on to CCOc1cc2[nH]c(=S)n(CC3CCCO3)c(=O)c2cc1OCC (stereo not drawn)
Output line: 7.12

Input line: Moving on to CC(NC(=O)c1ccco1)c1ccc2c(c1)OCCO2 (stereo not drawn)
Output line: 9.19

Input line: Moving on to COc1ccc(CCN2C(=O)CCC2(C)C(=O)NCc2cccnc2)cc1OC (stereo not drawn)
Output line: 1.2

***
Input line: What does the record list as differential viability (reversal) for Cc1ccc(-c2ccc(=O)n(CC(=O)NCCCN3CCCCC3C)n2)cc1 (stereo not drawn) ?
Output line: -3.54

Input line: Moving on to CN1CCN(C2=Nc3ccccc3Oc3ccc(Cl)cc32)CC1
Output line: 48.3

Input line: Moving on to O=C(CN(C1CCCCC1)S(=O)(=O)c1ccccc1)NCc1cccnc1
Output line: 3.4

Input line: Moving on to CCN(CC)C(=O)c1ccc(NS(=O)(=O)c2ccccc2)cc1
Output line: -1.12

Input line: Moving on to COc1cc(N=c2ssnc2Cl)cc(OC)c1
Output line: -1.38

Input line: Moving on to CCCCCC(=O)O[C@]1(C(C)=O)CC[C@H]2[C@@H]3CCC4=CC(=O)CC[C@]4(C)[C@H]3CC[C@@]21C
Output line: 20.6

Input line: Moving on to COc1ccc(CC(=O)NCc2ccccc2)cc1S(=O)(=O)N1CCOCC1
Output line: -9.06

Input line: Moving on to C=CCNC(=O)CNS(=O)(=O)c1ccc(F)cc1
Output line: 1.88

Input line: Moving on to Cc1c(NC(=O)C(C)Oc2ncnc3ccccc23)c(=O)n(-c2ccccc2)n1C (stereo not drawn)
Output line: 7.01
